MIC values recorded for E. faecalis ATCC 51299

In [3]: df
Out[3]:
                                 mol_smiles                  system  quantity_measured    result
0  Brc1ccc2[nH]cc(-c3cnc(-c4c[nH]c5ccc(Br)cc45)cn3)c2c1  E. faecalis ATCC 51299                MIC  > 100 µM
1  COc1ccc2[nH]cc(-c3cnc(-c4c[nH]c5ccc(OC)cc45)nc3)c2c1  E. faecalis ATCC 51299                MIC    100 µM

# context switch: different compound, same MIC
## Input What MIC appears in the records for this compound with E. faecalis ATCC 51299? Clc1ccc2[nH]cc(-c3cnc(-c4c[nH]c5ccc(Cl)cc45)cn3)c2c1
## Output > 100 µM

* * *

// MIC lookup, one value per entry
System: VR E. faecium ATCC 700221
Experiment: MIC by broth microdilution method (CLSI)
Settings: Enterococcus faecium, ATCC700221, 24 h
Number only, in µM; omit the unit.

See these solved cases before continuing.
In [3]: df
Out[3]:
                                 mol_smiles  recorded_number
0  Clc1ccc2[nH]cc(-c3cnc(-c4c[nH]c5ccc(Cl)cc45)nc3)c2c1             1.56
1  COc1ccc2[nH]cc(-c3cnc(-c4c[nH]c5ccc(OC)cc45)nc3)c2c1               50
2  c1ccc2c(-c3cnc(-c4c[nH]c5ccccc45)nc3)c[nH]c2c1              100

# context switch: different compound, same MIC
## Input Quick one: MIC of c1ccc2c(-c3csc(-c4c[nH]c5ccccc45)n3)c[nH]c2c1 ?
## Output 6.25

* * *

MIC values recorded for VR E. faecium ATCC 700221

See these solved cases before continuing.
>>> df
                                   compound  quantity_measured    result
0  Brc1cc2[nH]cc(-c3cnc(-c4c[nH]c5cc(Br)c(Br)cc45)cn3)c2cc1Br [formula (7)]                MIC     50 µM
1  Clc1ccc2[nH]cc(-c3cnc(-c4c[nH]c5ccc(Cl)cc45)cn3)c2c1 [formula (2), 2,5-bis(5-chloro-1H-indole-3-yl)pyrazine]                MIC  > 100 µM
2  COc1ccc2c(-c3cnc(-c4c[nH]c5cc(OC)ccc45)cn3)c[nH]c2c1 [formula (9)]                MIC  > 100 µM
3  c1ccc2c(-c3cc(-c4c[nH]c5ccccc45)ncn3)c[nH]c2c1 [formula (15), 4,6-di(1H-indole-3-yl)pyrimidine]                MIC  > 100 µM
4  COc1ccc2[nH]cc(-c3cnc(-c4c[nH]c5ccc(OC)cc45)cn3)c2c1 [formula (8)]                MIC  > 100 µM

## Input What MIC appears in the records for this compound with VR E. faecium ATCC 700221? Brc1ccc2[nH]cc(-c3cnc(-c4c[nH]c5ccc(Br)cc45)cn3)c2c1 [formula (3), 2,5-bis(5-bromo-1H-indole-3-yl)pyrazine]
## Output > 100 µM

## Input What MIC appears in the records for this compound with VR E. faecium ATCC 700221? Fc1ccc2[nH]cc(-c3cnc(-c4c[nH]c5ccc(F)cc45)nc3)c2c1 [formula (11)]
## Output 50 µM

* * *

MIC values recorded for VR E. faecium ATCC 700221

>>> df
                                   molecule    result
0  c1ccc2c(-c3ccc(-c4c[nH]c5ccccc45)nn3)c[nH]c2c1 [formula (17), 3,6-Di(1H-indole-3-yl)pyridazine]  > 100 µM
1  c1ccc2c(-c3cnc(-c4c[nH]c5ccccc45)cn3)c[nH]c2c1 [formula (10), 2,5-bis(1H-indole-3-yl)pyrazine]  > 100 µM

# context switch: different molecule, same MIC
## Input What MIC appears in the records for this molecule with VR E. faecium ATCC 700221? c1cc(-c2c[nH]c3ccccc23)nc(-c2c[nH]c3ccccc23)c1 [formula (16), 2,6-di(1H-indole-3-yl)pyridine]
## Output > 100 µM

* * *

MIC values recorded for E. faecium ATCC 35667
Number only, in µM; omit the unit.

See these solved cases before continuing.
>>> df
                                 mol_smiles  recorded_number
0  c1ccc2c(-c3csc(-c4c[nH]c5ccccc45)n3)c[nH]c2c1             6.25
1  Fc1ccc2[nH]cc(-c3cnc(-c4c[nH]c5ccc(F)cc45)nc3)c2c1               50
2  Clc1ccc2[nH]cc(-c3cnc(-c4c[nH]c5ccc(Cl)cc45)nc3)c2c1             1.56

# context switch: different compound, same MIC
## Input What MIC appears in the records for this compound with E. faecium ATCC 35667? c1ccc2c(-c3cnc(-c4c[nH]c5ccccc45)nc3)c[nH]c2c1
## Output 100

* * *

MIC values recorded for M. tuberculosis H37Rv

## Input What MIC appears in the records for this molecule with M. tuberculosis H37Rv? Clc1ccc2[nH]cc(-c3cnc(-c4c[nH]c5ccc(Cl)cc45)cn3)c2c1 [formula (2), 2,5-bis(5-chloro-1H-indole-3-yl)pyrazine]
## Output > 100 µM

## Input What MIC appears in the records for this molecule with M. tuberculosis H37Rv? c1ccc2c(-c3ccc(-c4c[nH]c5ccccc45)nn3)c[nH]c2c1 [formula (17), 3,6-Di(1H-indole-3-yl)pyridazine]
## Output > 100 µM

## Input What MIC appears in the records for this molecule with M. tuberculosis H37Rv? c1ccc2c(-c3cnc(-c4c[nH]c5ccccc45)nc3)c[nH]c2c1 [formula (12), 3,3'-(pyrimidine-2,5-diyl)bis(1H-indole)]
## Output 50 µM

## Input What MIC appears in the records for this molecule with M. tuberculosis H37Rv? COc1ccc2c(-c3cnc(-c4c[nH]c5cc(OC)ccc45)cn3)c[nH]c2c1 [formula (9)]
## Output > 100 µM

* * *

MIC values recorded for E. faecalis ATCC 51299

See these solved cases before continuing.
>>> df
                                 mol_smiles    result
0  c1ccc2c(-c3cc(-c4c[nH]c5ccccc45)ncn3)c[nH]c2c1  > 100 µM
1  c1cnc2[nH]cc(-c3cnc(-c4c[nH]c5ncccc45)nc3)c2c1  > 100 µM
2  Fc1ccc2[nH]cc(-c3cnc(-c4c[nH]c5ccc(F)cc45)cn3)c2c1  > 100 µM
3  Brc1ccc2c(-c3cnc(-c4c[nH]c5cc(Br)ccc45)cn3)c[nH]c2c1  > 100 µM

## Input What MIC appears in the records for this compound with E. faecalis ATCC 51299? c1ccc2c(-c3csc(-c4c[nH]c5ccccc45)n3)c[nH]c2c1
## Output > 100 µM

## Input What MIC appears in the records for this compound with E. faecalis ATCC 51299? Fc1ccc2[nH]cc(-c3cnc(-c4c[nH]c5ccc(F)cc45)nc3)c2c1
## Output 100 µM

## Input What MIC appears in the records for this compound with E. faecalis ATCC 51299? c1ccc2c(-c3cnc(-c4c[nH]c5ccccc45)cn3)c[nH]c2c1
## Output 25 µM

## Input What MIC appears in the records for this compound with E. faecalis ATCC 51299? Brc1cc2[nH]cc(-c3cnc(-c4c[nH]c5cc(Br)c(Br)cc45)cn3)c2cc1Br
## Output > 100 µM

## Input What MIC appears in the records for this compound with E. faecalis ATCC 51299? c1ccc2c(-c3cnc(-c4c[nH]c5ccccc45)nc3)c[nH]c2c1
## Output 100 µM

## Input What MIC appears in the records for this compound with E. faecalis ATCC 51299? Clc1ccc2[nH]cc(-c3cnc(-c4c[nH]c5ccc(Cl)cc45)nc3)c2c1
## Output 12.5 µM

## Input What MIC appears in the records for this compound with E. faecalis ATCC 51299? COc1ccc2[nH]cc(-c3cnc(-c4c[nH]c5ccc(OC)cc45)cn3)c2c1
## Output > 100 µM

## Input What MIC appears in the records for this compound with E. faecalis ATCC 51299? COc1ccc2c(-c3cnc(-c4c[nH]c5cc(OC)ccc45)cn3)c[nH]c2c1
## Output > 100 µM

## Input What MIC appears in the records for this compound with E. faecalis ATCC 51299? c1ccc2c(-c3ccc(-c4c[nH]c5ccccc45)nn3)c[nH]c2c1
## Output 100 µM

## Input What MIC appears in the records for this compound with E. faecalis ATCC 51299? c1cc(-c2c[nH]c3ccccc23)nc(-c2c[nH]c3ccccc23)c1
## Output 100 µM

* * *

Test system: E. faecium ATCC 35667
// MIC lookup, one value per entry

See these solved cases before continuing.
>>> df
                                 mol_smiles    result
0  Clc1ccc2[nH]cc(-c3cnc(-c4c[nH]c5ccc(Cl)cc45)cn3)c2c1  > 100 µM
1  c1cnc2[nH]cc(-c3cnc(-c4c[nH]c5ncccc45)nc3)c2c1  > 100 µM
2  Brc1cc2[nH]cc(-c3cnc(-c4c[nH]c5cc(Br)c(Br)cc45)cn3)c2cc1Br     50 µM
3  COc1ccc2[nH]cc(-c3cnc(-c4c[nH]c5ccc(OC)cc45)nc3)c2c1    100 µM
4  c1ccc2c(-c3ccc(-c4c[nH]c5ccccc45)nn3)c[nH]c2c1  > 100 µM
5  COc1ccc2c(-c3cnc(-c4c[nH]c5cc(OC)ccc45)cn3)c[nH]c2c1  > 100 µM
6  c1ccc2c(-c3cc(-c4c[nH]c5ccccc45)ncn3)c[nH]c2c1  > 100 µM
7  Brc1ccc2c(-c3cnc(-c4c[nH]c5cc(Br)ccc45)cn3)c[nH]c2c1  > 100 µM
8  Fc1ccc2[nH]cc(-c3cnc(-c4c[nH]c5ccc(F)cc45)cn3)c2c1  > 100 µM

# context switch: different compound, same MIC
## Input What MIC appears in the records for this compound with E. faecium ATCC 35667? c1ccc2c(-c3cnc(-c4c[nH]c5ccccc45)cn3)c[nH]c2c1
## Output > 100 µM
